- Test system: CP266
- procedure_summary: qHTS profiling for inhibitors of Plasmodium falciparum proliferation (AID 504749); note: nearly all actives have a fitted effect of over 60% in size
- study_conditions: P. falciparum in erythrocytes, SYBR Green DNA, 72 h; series mostly up to 28.7 µM
Inconclusive results are not listed. The source made the active and inactive calls. Calls come from the whole dose curve; as a rule, active = well fitted inhibition curve with a large enough effect; inconclusive = small, poorly fitted or top-dose-only effect; inactive = flat fitted curve, though single readings scatter.
Classes to choose from: True (active), False (inactive)

>>> print(df.to_string())
                                   compound  target  label
0  Cc1cccc(Nc2ccncc2S(=O)(=O)NC(=O)NC(C)C)c1   CP266  False
1         O=P(O)(O)C(O)(Cc1cccnc1)P(=O)(O)O   CP266  False
2              CC(C)Cn1cnc2c(N)nc3ccccc3c21   CP266  False
3                        CCc1cc(C(N)=S)ccn1   CP266  False
4                    S=P(N1CC1)(N1CC1)N1CC1   CP266  False

Qu. For CN(C)c1ccc(C(=C2C=CC(=[N+](C)C)C=C2)c2ccc(N(C)C)cc2)cc1 , what call appears in the results of this test?
Ans. True

Qu. For Nc1[nH]c(=O)ncc1F , what call appears in the results of this test?
Ans. False

Qu. For CC[C@H](C)C(=O)O[C@H]1C[C@@H](C)C=C2C=C[C@H](C)[C@H](CC[C@@H]3C[C@@H](O)CC(=O)O3)[C@H]21 , what call appears in the results of this test?
Ans. False

Qu. For CNNCc1ccc(C(=O)NC(C)C)cc1 , what call appears in the results of this test?
Ans. False

Qu. For COc1nc(N)nc2c1ncn2[C@@H]1O[C@H](CO)[C@@H](O)[C@@H]1O , what call appears in the results of this test?
Ans. False

Qu. For COc1c(N2CCNC(C)C2)c(F)cc2c(=O)c(C(=O)O)cn(C3CC3)c12 (stereo unspecified) , what call appears in the results of this test?
Ans. False

* * *

- procedure_summary: qHTS profiling for inhibitors of Plasmodium falciparum proliferation (AID 504749); note: nearly all actives have a fitted effect of over 60% in size;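 for activity, negative = inhibition: 0% = DMSO vehicle and full inhibition = artemisinin control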
- study_conditions: P. falciparum in erythrocytes, SYBR Green DNA, 72 h; at 12.8 µM (top of the series); parasite line B
Inconclusive results are not listed. Activity calls are given as the source filed them. Calls follow the shape of the dose curve; as a rule, active = well fitted inhibition curve with a large enough effect; inconclusive = small, poorly fitted or top-dose-only effect; inactive = flat fitted curve, though single readings scatter.
recorded_endpoint: activity, negative = inhibition

>>> print(df.to_string())
                            chemical_smiles    recorded_result
0     COc1cc(NS(=O)(=O)c2ccc(N)cc2)nc(OC)n1  -3.51% (inactive)
1                         Nc1[nH]c(=O)ncc1F   1.39% (inactive)
2  CC(C)(Sc1cc(C(C)(C)C)c(O)c(C(C)(C)C)c1)Sc1cc(C(C)(C)C)c(O)c(C(C)(C)C)c1   8.09% (inactive)
3         COc1cnc(NS(=O)(=O)c2ccc(N)cc2)nc1    2.7% (inactive)
4  CCn1cc(C(=O)O)c(=O)c2cc(F)c(N3CCNCC3)nc21  -38.9% (inactive)

Kindly review the next molecule as well.
Qu. Find the recorded activity, negative = inhibition belonging to Cc1cccc(N(C)C(=S)Oc2ccc3ccccc3c2)c1 and report it.
Ans. 0.272% (inactive)

* * *

- procedure_summary: Cell Viability - LYMP2-020 (AID 986);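 note: cells exposed to compound for 24 h at 37 °C; nearly all actives have a fitted effect of over 55% in size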
- study_conditions: series mostly up to 92.2 µM
Inconclusive results are not listed. Active and inactive are the calls of the source. Calls follow the shape of the dose curve; as a rule, active = well fitted cell-killing curve with a large enough effect; inconclusive = small, poorly fitted or top-dose-only effect; inactive = flat fitted curve, though single readings scatter.
Classes to choose from: t for active, f for inactive

Answered cases to consult:
In [3]: df
Out[3]:
                            chemical_smiles  label
0           Cc1cc(NS(=O)(=O)c2ccc(N)cc2)no1      f
1  O=C(N[C@H](CO)[C@H](O)c1ccc([N+](=O)[O-])cc1)C(Cl)Cl      f
2                           NNC(=O)c1ccncc1      f
3  CN(C)c1ccc(C(=C2C=CC(=[N+](C)C)C=C2)c2ccc(N(C)C)cc2)cc1      t
4  C[C@]12C=CC(=O)C=C1CC[C@@H]1[C@@H]2C(=O)C[C@@]2(C)[C@H]1CC[C@]2(O)C(=O)CO      f

Qu. For CCc1cc(C(N)=S)ccn1 , what call appears in the results of this test?
Ans. f

Qu. For Cc1nnc(NS(=O)(=O)c2ccc(N)cc2)s1 , what call appears in the results of this test?
Ans. f

The values you see were collected from PubChem BioAssay (NCATS).
